- target.or.test.system: α7 nAChR (Homo sapiens, UniProt P36544)
Positions of bridges follow the written chain, without caps; N, C: chain ends. Non-standard residues stand in square brackets, D forms with d. Residues, ends and D or L forms follow the SMILES beside them. Bip = N[C@@H](Cc1ccc(-c2ccccc2)cc1)C(=O)O; Hyp = O=C(O)[C@@H]1C[C@@H](O)CN1; Nle = CCCC[C@H](N)C(=O)O; Orn = NCCC[C@H](N)C(=O)O; Aib = CC(C)(N)C(=O)O
Listed here: items and their measured Kd.
Reply with just the number (in nM).

Previously resolved entries follow.
* CC(C)C[C@H](NC(=O)[C@@H](NC(=O)[C@H]1CSSC[C@@H](NC(=O)[C@H](CO)NC(=O)CN)C(=O)N[C@@H](CO)C(=O)N[C@H]([C@H](C)O)C(=O)N2CCC[C@H]2C(=O)N2CCC[C@H]2C(=O)N[C@@H](CO)C(=O)N1)C(C)C)C(=O)N[C@@H](Cc1ccc(O)cc1)C(=O)N[C@@H](CO)C(=O)O [AJ003-5] (H-GS[dC]S[dT]PPS[dC]VLYS-OH; disulfide 3-9) | 400
* CCCC[C@H](NC(=O)[C@@H](NC(=O)[C@H]1CSSC[C@H](NC(=O)[C@H](CO)NC(=O)CN)C(=O)N[C@@H](CO)C(=O)N[C@H]([C@H](C)O)C(=O)N2C[C@H](O)C[C@H]2C(=O)N2C[C@H](O)C[C@H]2C(=O)N[C@@H](C)C(=O)N1)C(C)C)C(=O)N[C@@H](Cc1ccc(-c2ccccc2)cc1)C(=O)N[C@@H](CCCN)C(N)=O [AJ003-35] (H-GSCS[dT][Hyp][Hyp]A[dC]V[Nle][Bip][Orn]-NH2; disulfide 3-9) | 142

Now look at this one.
Form field Kd, entry CC(C)C[C@H](NC(=O)C(C)(C)NC(=O)[C@H]1CSSC[C@H](NC(=O)[C@H](CO)NC(=O)CN)C(=O)N[C@@H](CO)C(=O)N[C@H]([C@H](C)O)C(=O)N2CCC[C@H]2C(=O)N2CCC[C@H]2C(=O)N[C@@H](CO)C(=O)N1)C(=O)N[C@@H](Cc1ccc(O)cc1)C(=O)N[C@@H](CO)C(=O)O [AJ003-25] (H-GSCS[dT]PPS[dC][Aib]LYS-OH; disulfide 3-9) : 4670

====

- target.or.test.system: α7 nAChR (Homo sapiens)
Positions of bridges follow the written chain, without caps; N, C: chain ends. Non-standard residues stand in square brackets, D forms with d. Residues, ends and D or L forms follow the SMILES beside them. Hyp = O=C(O)[C@@H]1C[C@@H](O)CN1; Nle = CCCC[C@H](N)C(=O)O; Orn = NCCC[C@H](N)C(=O)O; Sar = CNCC(=O)O
recorded.metric: Kd (µM)
Unit µM implied. Number only.

• CCCC[C@H](NC(=O)[C@@H](NC(=O)[C@H]1CSSC[C@H](NC(=O)[C@H](CO)NC(=O)CN)C(=O)N[C@@H](CO)C(=O)N[C@H]([C@H](C)O)C(=O)N2C[C@H](O)C[C@H]2C(=O)N2C[C@H](O)C[C@H]2C(=O)N[C@@H](C)C(=O)N1)C(C)C)C(=O)N[C@@H](Cc1c[nH]c2ccccc12)C(=O)N[C@@H](CCCN)C(N)=O [AJ003-41] (H-GSCS[dT][Hyp][Hyp]A[dC]V[Nle]W[Orn]-NH2; disulfide 3-9) = 0.11

With those in mind, consider the next compound.
For CNCC(=O)N[C@@H](CO)C(=O)N[C@H]1CSSC[C@H](C(=O)N[C@H](C(=O)N[C@@H](CC(C)C)C(=O)N[C@@H](Cc2ccc(O)cc2)C(=O)N[C@@H](CO)C(=O)O)C(C)C)NC(=O)[C@H](CO)NC(=O)[C@@H]2CCCN2C(=O)[C@@H]2CCCN2C(=O)[C@@H]([C@H](C)O)NC(=O)[C@H](CO)NC1=O [AJ003-8] (H-[Sar]SCS[dT]PPS[dC]VLYS-OH; disulfide 3-9) on α7 nAChR (Homo sapiens), measured Kd was 6.42
